Test system: OVCAR-8 ovarian
Test: NCI-60 one-dose screen, 48 h (100 = growth as untreated, 0 = no growth, -100 = all killed)
Details: 10 µM unless noted
About 83,000 compounds went through this panel and 20% of them were active in at least one assay; those are over-represented in the sample as a whole.
readout: growth (%)
// note: answer is a bare numeric in %

[in] Quick one: growth of NC(=S)N/N=C(/c1cccs1)C1CC1 ?
[out] 67.7

[in] What value of growth has been reported for the following compound? Cc1cc(N=Nc2ccc(-c3ccc(N=Nc4ccc(O)c(C(=O)O)c4)cc3)cc2)c(N)c(N=Nc2ccc(C(=O)O)cc2)c1N
[out] 90.8

[in] # input compound: Oc1ccc(Cl)cc1-c1cc(-c2ccccc2Cl)[nH]n1 ; wanted: its growth
[out] 71.1

[in] Could you share which growth value was measured for Fc1[nH]nc2ccc([C@@H]3Nc4ccc5[nH]ncc5c4[C@H]4C5CCC(C5)[C@@H]34)cc12 (stereo partly drawn) ?
[out] 40

[in] Recorded growth for COc1ccc(/C(=C\c2ccc3c(c2)OCO3)C(=O)Nc2nc3ccccc3s2)cc1 , please?
[out] 102

[in] Value lookup for growth; key = CC(C)COC(=O)NC(C)(C)C
[out] 103

====

Tested on: TK-10 renal
Assay: NCI-60 one-dose screen, 48 h (100 = growth as untreated, 0 = no growth, -100 = all killed)
Conditions: 10 µM unless noted
Protocol: Growth inhibition of the TK-10 human tumor cell line is measured as a screen for anti-cancer activity. Cells are grown in 96 well plates and exposed to the test compound for 48 hours. Compounds are tested at a single concentration, which is 10^-5 M for most compounds. The reported endpoint is percent growth (GI% or GIPRCNT), where numbers from 0 - 100% represent growth inhibition, and numbers from -100% - 0 represent cell death. For example, a value of 40 represents 60% growth inhibition. […]
Compounds without any hit were thinned out: in the full panel of roughly 83,000, 20% have a hit.
Attribute: growth
// return numeric value only (unit: %, not printed)

# molecule, growth, %
data = [
    ("Nc1nc(N)c2cc(Sc3ccc(Cl)cc3)ccc2n1", 43),
    ("FC(F)(F)C1=NNC(c2ccc3ccccc3c2)=NN1", 129),
    ("C1=C\\CCCCN2CC[C@H]3[C@H](CCCC/C=C\\CCCN4C[C@@H](CCCCC/1)C[C@@H]3C4)C2", 109),
    ("COc1ccc(-c2cnc3ccnn3c2-c2cc(OC)c(OC)c(OC)c2)cc1", 59.6),
    ("O=c1c2sc3ncc(Cl)cc3c2nnn1-c1cccc(Cl)c1", 93),
]

[in] For COc1cc2nccc(Oc3ccc(NC(=O)C4(C(=O)Nc5ccc(F)cc5)CC4)cc3)c2cc1Oc1ccc(N)cn1 , what is its reported growth?
[out] 36.3

[in] What value of growth has been reported for the following molecule? C=CCn1c(SCC(=O)Nc2ccc(C(=O)/C=C/c3ccccc3)cc2)nnc1-c1ccc(OC)c(OC)c1
[out] 87.6

[in] Fill in: growth of COc1ccc2cc(-c3nc(C)c(C(C)=O)c(-c4ccc(C)cc4)n3)ccc2c1 is ___
[out] 93.9

[in] Which growth value is on record for CC(=O)c1c(C)nc(-c2cc(C)cc(Cl)c2)nc1-c1cccc(Oc2ccccc2)c1 ?
[out] 93.6

[in] Find the recorded growth belonging to COc1ccc(/C(=C\c2cc(OC)c(OC)c(OC)c2)C(=O)Nc2nc3ccc(Cl)cc3s2)cc1 and report it.
[out] 92.4

[in] What growth value was documented for this molecule, Oc1c(C(c2ccc(F)cc2)N2CCCCC2)ccc2cncnc12 (centres undefined) ?
[out] 9.03

[in] Value lookup for growth; key = COc1ccc(C(=O)c2cc(C)c(OC)c(C)c2)cc1OC(=O)CCl
[out] 62.6

[in] Would you mind telling me what growth value was observed for CCN(CC)CCCC(C)Nc1cnc(C(=O)Nc2cc(C)cc3cccnc23)cn1 (centres undefined) ?
[out] 86.9

====

Test system: HCT-15 colon
Assay: NCI-60 one-dose screen, 48 h (100 = growth as untreated, 0 = no growth, -100 = all killed)
Conditions: 10 µM unless noted
Compounds without any hit were thinned out: in the full panel of roughly 83,000, 20% have a hit. Activity calls are given as the source filed them. The calls were made as follows: active = growth percent below 10; inactive = the rest.
Listed compounds paired with reported growth

# compound, growth
records = [
    ("O=C(OCc1ccc2c(Cl)cc(Cl)c(O)c2n1)c1cc2ccccc2[nH]1", "-50.2% (active)"),
    ("C#CC[C@@H]1C[C@]2(C)[C@H]3CC[C@@H]4[C@H]5C(C(=C)C)CC[C@]5(C(=O)NCCCCN)CC[C@@]4(C)[C@]3(C)CC[C@H]2C(C)(C)[C@H]1OC(C)=O (stereo not given in full)", "-66.1% (active)"),
    ("O=C(O)Cn1ccc2ccccc21", "111% (inactive)"),
]

[in] Fill blank: measured growth of the compound NC(N)=N/N=C\c1cccc(OCc2ccccc2)c1 is ____.
[out] 45% (inactive)

[in] What does the data say about its growth? Entry: CC(C)c1[nH]ncc1-c1nc2ccc3[nH]ncc3c2c2c1CCCC2
[out] 37.5% (inactive)

====

Reported growth values for a set of molecules
Test system: SK-MEL-5 melanoma
Experiment: NCI-60 one-dose screen, 48 h (100 = growth as untreated, 0 = no growth, -100 = all killed)
Settings: 10 µM unless noted
This is part of a sample that, as a whole, favours compounds with a hit. Of some 83,000 tested, about 20% had one in any assay. Calls of active or inactive are those of the source. How the source made its calls: active means growth percent below 10; inactive means the rest.

Consider the following illustrative entries.
# molecule, value.measured
data = [
    ("COc1ccc2nc(NC(=O)/C(=C/c3cc(OC)c(OC)c(OC)c3)c3ccc(OC)c(OC)c3)sc2c1", "93% (inactive)"),
    ("O=C(Nc1ccc(Oc2ccc(Nc3nc4ccccc4s3)cc2)cc1)Nc1ccc(Cl)c(C(F)(F)F)c1", "-84.8% (active)"),
    ("CSC(=S)N/N=C(\\C)c1ccccn1", "-47.7% (active)"),
    ("CCN(CC)CCCC(C)Nc1cnc(C(=O)Nc2cccc3ccc(OC)nc23)cn1 (stereo not drawn)", "5.4% (active)"),
    ("Cn1c(=O)c2[nH]c(Cc3ccc4c(c3)OCO4)nc2n(C)c1=O", "108% (inactive)"),
    ("O=C(/C=C/c1cc([N+](=O)[O-])ccc1Cl)c1ccccc1", "87.3% (inactive)"),
]

Now examine the next entry.
[in] Need growth of N#CC1=C(N)Oc2nc[nH]c(=O)c2C1c1cccs1 (stereo not drawn) , thanks.
[out] 102% (inactive)

====

Tested on: OVCAR-5 ovarian
Assay: NCI-60 one-dose screen, 48 h (100 = growth as untreated, 0 = no growth, -100 = all killed)
Details: 10 µM unless noted
Compounds without any hit were thinned out: in the full panel of roughly 83,000, 20% have a hit.
// classify: if (growth < 80%) fulfilled else not fulfilled

Record excerpt, results attached:
# compound, experimental.target, group.label
rows = [
    ("C=C(C)C1CCC2(C(=O)O)CCC3(C)C(CCC4C5(C)CCC(O)C(C)(C)C5CCC43C)C12 (stereo unspecified)", "OVCAR-5 ovarian", "fulfilled"),
    ("[O-]/[N+](=C\\c1ccccc1)CC1(O)CCCCC1", "OVCAR-5 ovarian", "not fulfilled"),
    ("COc1cc2c(cc1I)-c1c(cc(OC)c(OC)c1OC)CC[C@@H]2NC(C)=O", "OVCAR-5 ovarian", "fulfilled"),
]

[in] In plain terms, does CCN(CC)CCCCCCCNc1cc(OC)cc2c(C)ccnc12 come in under 80% for growth?
[out] not fulfilled

[in] Problem: For the compound COc1ccc(C(=O)/C=C/c2cn(-c3ccccc3)nc2-c2cccc(Nc3ccnc4cc(Cl)ccc34)c2)cc1 , is growth under 80%?
[out] not fulfilled

[in] For this compound, is growth lower than 80%? Cc1ccc(CSCc2ccc(C(=O)NC3CC3)o2)cc1
[out] fulfilled

====

System: RPMI-8226 leukemia
Test: NCI-60 one-dose screen, 48 h
Settings: 10 µM unless noted
Description: Growth inhibition of the RPMI-8226 human tumor cell line is measured as a screen for anti-cancer activity. Cells are grown in 96 well plates and exposed to the test compound for 48 hours. Compounds are tested at a single concentration, which is 10^-5 M for most compounds. The reported endpoint is percent growth (GI% or GIPRCNT), where numbers from 0 - 100% represent growth inhibition, and numbers from -100% - 0 represent cell death. For example, a value of 40 represents 60% growth inhibition. […]
The panel holds about 83,000 compounds, 20% with a hit somewhere; the sample as a whole holds those more often. Active and inactive are the calls of the source. The calls were made as follows: active = growth percent below 10; inactive = the rest.
Output constraint: value belongs to Yes (active), No (inactive)

As a guide, the following entries are already answered.
# test.smiles, experimental.target, group.label
data = [
    ("N=C(N)c1ccc(-c2ccc(-c3cc(Cl)cc(Cl)c3)o2)nc1", "RPMI-8226 leukemia", "Yes"),
    ("CN1CCN(c2ccc(N3Cc4ccccc4OC4=C3C(=O)c3c(O)ccc(O)c3C4=O)cn2)CC1", "RPMI-8226 leukemia", "Yes"),
    ("N=c1n(Cc2ccccc2)c(N)cc(=O)n1Cc1ccccc1", "RPMI-8226 leukemia", "No"),
]

[in] Tell me the assay call for O=C(O)/C=C(\c1nc2ccc([N+](=O)[O-])cc2[nH]1)c1cc(Cl)ccc1O please.
[out] Yes

[in] Called result for O=c1cc(-c2ccc3c(c2)OCCO3)oc2cc(Cl)ccc12
[out] No
